assay: qHTS assay for identifying genotoxic compounds that show differential cytotoxicity against isogenic chicken DT40 cell lines with known DNA damage response pathways - Rev3 mutant cell line (AID 743014); conditions: chicken DT40 Rev3-/- viability, CellTiter-Glo, 40 h; series mostly up to 68.4 µM; also: nearly all actives have a fitted effect of over 55% in size
Inconclusive results are not listed. Active and inactive are the calls of the source. Calls follow the shape of the dose curve; as a rule, active = well fitted cell-killing curve with a large enough effect in the repeat runs; inconclusive = weak or mixed curves, or effect the other way; inactive = no such curve, though single readings can be large or run the other way.
Possible outcomes: T = active, F = inactive

{"columns": ["compound", "answer label"],
 "data": [
  ["C=C(C)C(=O)OCC(C)O (stereo not given)", "F"],
  ["CCN(CC)C(=O)c1cccc(C)c1", "F"],
  ["COc1ccc(CN(CCN(C)C)c2ccccn2)cc1", "F"],
  ["O=C(Nc1ncc([N+](=O)[O-])s1)c1cccs1", "T"],
  ["CC(=O)CCC(=O)O", "F"],
  ["C1=CC2C3C=CC(C3)C2C1 (stereo not given)", "T"],
  ["CN(N=O)C(=O)N[C@@H]1[C@@H](O)[C@H](O)[C@@H](CO)O[C@@H]1O", "F"],
  ["COc1ccc2cc(S(=O)(=O)N[C@H](CC(=O)N[C@H](Cc3ccc(CN4[C@H](C)CCC[C@@H]4C)cc3)C(=O)N(C)C(C)C)c3ccc4c(c3)OCO4)ccc2c1", "T"],
  ["C=CCc1ccc(O)c(OC)c1", "F"],
  ["Cc1cc(=O)oc2cc(O)ccc12", "F"]
]}

====

experiment: qHTS assay to test for compound auto fluorescence at 535 nm (green) in HepG2 cells (AID 720675); details: green autofluorescence 485/535 nm, 1 h; series mostly up to 91.3 µM
The source made the active and inactive calls. Calls come from the whole dose curve; as a rule, active = well fitted curve in the direction sought with a large enough effect in the repeat runs; inconclusive = weak or mixed curves; inactive = flat fitted curve, though single readings scatter.
measure name: outcome

{"columns": ["molecule", "measure name", "observed result"],
 "data": [
  ["C=CCc1ccc(O)c(OC)c1", "outcome", "inactive"],
  ["NS(=O)(=O)c1cc2c(cc1Cl)NCNS2(=O)=O", "outcome", "inactive"],
  ["O=C1c2c(O)cccc2Cc2cccc(O)c21", "outcome", "inactive"],
  ["Cc1cn([C@H]2C=C[C@@H](CO)O2)c(=O)[nH]c1=O", "outcome", "inactive"],
  ["O=C1NC(=O)C(c2ccccc2)(c2ccccc2)N1", "outcome", "inactive"],
  ["CN(C)CCOC(c1ccccc1)c1ccccc1", "outcome", "inactive"],
  ["CN1CCC[C@H]1c1cccnc1", "outcome", "inactive"],
  ["O=C(O)CC(O)C(=O)O (configuration not stated)", "outcome", "inactive"],
  ["CC(O)(P(=O)(O)O)P(=O)(O)O", "outcome", "inactive"],
  ["C1CCC(C(CC2CCCCN2)C2CCCCC2)CC1 (configuration not stated)", "outcome", "inactive"],
  ["Cc1ncc([N+](=O)[O-])n1C", "outcome", "inactive"],
  ["CN(N=O)C(=O)N[C@@H]1[C@@H](O)[C@H](O)[C@@H](CO)O[C@@H]1O", "outcome", "inactive"],
  ["CC12CCC(CC1)C(C)(C)O2", "outcome", "inactive"],
  ["COc1ccc(CN(CCN(C)C)c2ccccn2)cc1", "outcome", "inactive"],
  ["CN1[C@@H]2CC(OC(=O)[C@H](CO)c3ccccc3)C[C@H]1[C@@H]1O[C@@H]12 (some centres not stated)", "outcome", "inactive"],
  ["CS(=O)(=O)OCCCCOS(C)(=O)=O", "outcome", "inactive"],
  ["CCCCCCCCCCCCCCCC[N+](C)(C)Cc1ccccc1", "outcome", "inactive"],
  ["CC(=O)Nc1c(I)c(NC(C)=O)c(I)c(C(=O)O)c1I", "outcome", "inactive"],
  ["O=S1(=O)OC(c2ccc(O)cc2)(c2ccc(O)cc2)c2ccccc21", "outcome", "inactive"],
  ["C/C=C/C=C/C(=O)O", "outcome", "inactive"],
  ["CC1(C)O[C@@H]2C[C@H]3[C@@H]4CCC5=CC(=O)C=C[C@]5(C)[C@@]4(F)[C@@H](O)C[C@]3(C)[C@]2(C(=O)CO)O1", "outcome", "inactive"],
  ["O=C1NS(=O)(=O)c2ccccc21", "outcome", "inactive"],
  ["Nc1c(N=Nc2ccc(-c3ccc(N=Nc4cc(S(=O)(=O)O)c5ccccc5c4N)cc3)cc2)cc(S(=O)(=O)O)c2ccccc12", "outcome", "inactive"],
  ["CCOc1ccc(NC(C)=O)cc1", "outcome", "inactive"],
  ["COc1ccc2c(c1)c(CC(=O)O)c(C)n2C(=O)c1ccc(Cl)cc1", "outcome", "inactive"],
  ["Nc1ccc(S(N)(=O)=O)cc1", "outcome", "inactive"],
  ["F[B-](F)(F)F", "outcome", "inactive"],
  ["CC(C)C(=O)Nc1ccc([N+](=O)[O-])c(C(F)(F)F)c1", "outcome", "inactive"],
  ["CCN(Cc1c(F)cccc1Cl)c1c([N+](=O)[O-])cc(C(F)(F)F)cc1[N+](=O)[O-]", "outcome", "inactive"],
  ["CC(=O)CC(c1ccccc1)c1c(O)c2ccccc2oc1=O (configuration not stated)", "outcome", "inactive"],
  ["Cc1cccc(C)c1", "outcome", "inactive"],
  ["CCCc1cc(=O)[nH]c(=S)[nH]1", "outcome", "inactive"],
  ["CCOC(N)=O", "outcome", "inactive"],
  ["O=c1[nH]cc(F)c(=O)[nH]1", "outcome", "inactive"],
  ["Cc1cc(C)nc(NS(=O)(=O)c2ccc(N)cc2)n1", "outcome", "inactive"],
  ["CCCCC1(COC(=O)CCC(=O)O)C(=O)N(c2ccccc2)N(c2ccccc2)C1=O", "outcome", "inactive"],
  ["O=C1O[C@H]([C@@H](O)CO)C(O)=C1O", "outcome", "inactive"]
]}
